molecular target: Leucine aminopeptidase (Plasmodium falciparum (isolate 3D7)); experiment: P. falciparum M17LAP inhibitors, primary screen, biochemical, fluorogenic H-Leu-NHMec substrate, 1536-well (AID 1619); settings: recombinant M17LAP, H-Leu-NHMec fluorogenic kinetic assay; at 30 µM; hits give high values;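 further: plate controls were full reaction with DMSO carrier for no effect and no enzyme background for full effect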
The campaign covered roughly 220,000 compounds. About 830 (0.38%) were called active. Only a sample is shown. Entries with a potency or affinity are not part of this list.
Kind request: treat 10% as inclusive, so inhibition at 10% or higher is T, anything lower is F.

{"molecular string": "CCc1nnc(NS(=O)(=O)c2ccc(NC(=S)NC(=O)/C=C/c3ccc(F)cc3)cc2)s1", "label value": "T"}
{"molecular string": "O=C(O)CCCN1C(=O)/C(=C/c2cn(-c3ccccc3)nc2-c2cccs2)SC1=S", "label value": "F"}
{"molecular string": "Cc1ccc(O)c(-c2cc(-c3ccccc3C)[nH]n2)c1", "label value": "F"}
{"molecular string": "COc1ccccc1N1CCN(C(=O)c2cc(C(C)(C)C)oc2C)CC1", "label value": "T"}
{"molecular string": "CCc1nnc(NS(=O)(=O)c2ccc(NC(=O)COc3ccc(Cl)c(C)c3)cc2)s1", "label value": "T"}
{"molecular string": "Nc1n[nH]c(N)c1N=Nc1ccc2c(c1)OCO2", "label value": "F"}
{"molecular string": "Nc1nn(-c2ccccc2)c(N)c1N=Nc1cccc(F)c1", "label value": "F"}
{"molecular string": "CCc1nnc(NS(=O)(=O)c2ccc(NC(=S)NC(=O)/C=C/c3ccc(OC)cc3)cc2)s1", "label value": "T"}
{"molecular string": "CCc1nnc(NS(=O)(=O)c2ccc(NC(=S)NC(=O)/C=C/c3ccccc3)cc2)s1", "label value": "T"}

###

target: Leucine aminopeptidase (Plasmodium falciparum (isolate 3D7)) (UniProt Q8IL11); assay: P. falciparum M17LAP inhibitors, primary screen, biochemical, fluorogenic H-Leu-NHMec substrate, 1536-well (AID 1619); conditions: recombinant M17LAP, H-Leu-NHMec fluorogenic kinetic assay; at 30 µM; hits give high values;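 further: plate controls were full reaction with DMSO carrier for no effect and no enzyme background for full effect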
Sequence (Q8IL11 whole entry, looked up): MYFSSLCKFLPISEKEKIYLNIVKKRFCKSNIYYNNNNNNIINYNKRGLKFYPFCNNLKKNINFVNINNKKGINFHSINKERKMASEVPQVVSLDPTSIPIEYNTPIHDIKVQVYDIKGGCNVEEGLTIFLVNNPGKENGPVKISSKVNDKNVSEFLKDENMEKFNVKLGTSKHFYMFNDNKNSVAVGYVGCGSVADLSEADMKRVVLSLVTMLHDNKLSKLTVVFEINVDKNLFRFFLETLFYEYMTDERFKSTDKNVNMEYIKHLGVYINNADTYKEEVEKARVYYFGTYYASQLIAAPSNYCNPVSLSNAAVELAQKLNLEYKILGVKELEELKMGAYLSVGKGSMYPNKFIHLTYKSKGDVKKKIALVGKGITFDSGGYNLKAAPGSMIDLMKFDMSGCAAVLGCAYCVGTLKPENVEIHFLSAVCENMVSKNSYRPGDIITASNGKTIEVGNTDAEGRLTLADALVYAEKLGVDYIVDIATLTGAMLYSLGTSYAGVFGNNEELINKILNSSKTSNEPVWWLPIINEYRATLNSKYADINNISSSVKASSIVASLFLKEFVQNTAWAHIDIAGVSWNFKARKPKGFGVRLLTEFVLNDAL
The whole screen tested about 220,000 compounds, of which about 830 (0.38%) were called active. The list is a sample of the results. Measured potencies and affinities stand elsewhere.
measurement type: inhibition (%)

{"molecule": "O=C(CSc1ncccn1)Nc1ccc2c(c1)CCC2", "measurement type": "inhibition", "reported": -3.11}
{"molecule": "CC(=O)CSc1nnc(Cc2ccc3c(c2)OCO3)o1", "measurement type": "inhibition", "reported": -2.53}
{"molecule": "COc1cccc(-c2nnn(CC(=O)Nc3ccc(C)cc3C)n2)c1OC", "measurement type": "inhibition", "reported": -10}
{"molecule": "Cc1ccc2nc(SCC(=O)Nc3ccc4c(c3)CCC4)[nH]c2c1", "measurement type": "inhibition", "reported": -0.04}
{"molecule": "Cc1ccc(NC(=O)CSc2ncn(-c3ccccc3)n2)cc1C", "measurement type": "inhibition", "reported": 3.12}
{"molecule": "NC(=O)c1c(NC(=O)C2CCCO2)sc2c1CCCC2 (stereo not given)", "measurement type": "inhibition", "reported": 25.2}
{"molecule": "CCCS(=O)(=O)N1CCN(S(=O)(=O)c2ccccc2)CC1", "measurement type": "inhibition", "reported": -6.24}
{"molecule": "O=C(O)c1ccc(N2C(=O)CC(N3C(=O)/C(=C/c4ccc(Cl)cc4)SC3=S)C2=O)cc1 (stereo not given)", "measurement type": "inhibition", "reported": 6.02}
{"molecule": "Cc1cccc(C)c1NC(=O)CSc1nnc(NC(=O)CN2CCOCC2)s1", "measurement type": "inhibition", "reported": 24.1}
{"molecule": "COc1ccc(Cl)cc1S(=O)(=O)n1nnc2ccccc21", "measurement type": "inhibition", "reported": 49}
{"molecule": "Cc1ccc(NC(=O)CSc2ncc3ccccn23)cc1C", "measurement type": "inhibition", "reported": -1.12}
{"molecule": "Cc1cc(NC(=O)CCN2C(=O)C3C4CCC(C4)C3C2=O)cc(C)c1Br (stereo not given)", "measurement type": "inhibition", "reported": 3.99}
{"molecule": "COCCSc1nnc(NC(=O)C2CC(=O)N(c3ccc(C)cc3)C2)s1 (stereo not given)", "measurement type": "inhibition", "reported": 1.69}
{"molecule": "CCC(=O)OCC(=O)c1cc(C)n(-c2ccc(Br)cc2)c1C", "measurement type": "inhibition", "reported": 0.2}
{"molecule": "COc1ccc(-c2nc(=S)n3ccsc3n2)cc1OC", "measurement type": "inhibition", "reported": -2.9}
{"molecule": "COc1cccc(-c2nnn(CC(=O)NC3CCCC3)n2)c1OC", "measurement type": "inhibition", "reported": 13.1}
{"molecule": "O=C(Cc1c(F)cccc1Cl)Nc1cc(S(=O)(=O)N2CCCCC2)ccc1N1CCOCC1", "measurement type": "inhibition", "reported": 10.3}
{"molecule": "Cc1ccc2nsnc2c1S(=O)(=O)Nc1cccc2nsnc12", "measurement type": "inhibition", "reported": 2.26}
{"molecule": "COc1cccc(NC(=O)CSc2ncc(S(=O)(=O)c3ccccc3)c(=O)[nH]2)c1", "measurement type": "inhibition", "reported": 9.3}
{"molecule": "CCOc1ccc(/C=C2\\SC(=S)N(CCC(=O)O)C2=O)cc1", "measurement type": "inhibition", "reported": 6.65}
{"molecule": "O=C(Cc1ccccc1)NN1C(=O)c2ccccc2C1=O", "measurement type": "inhibition", "reported": 23.7}
{"molecule": "O=C(CN1CCc2ccccc2C1)N1CCN(S(=O)(=O)c2ccccc2)CC1", "measurement type": "inhibition", "reported": 7.42}
{"molecule": "O=C(CCC(=O)N/N=C/c1ccco1)N/N=C/c1ccco1", "measurement type": "inhibition", "reported": 6.28}
{"molecule": "CC(C)CSc1nnc2[nH]c(=O)cc(N)n12", "measurement type": "inhibition", "reported": -1.75}
{"molecule": "O=C1CN(C(=O)CCN2CCOCC2)C(c2ccccc2)c2cc(Br)ccc2N1 (stereo not given)", "measurement type": "inhibition", "reported": 8.27}
{"molecule": "O=C(c1ccc2c(c1)OCO2)C1CCCN(C(=O)C2CCOCC2)C1 (stereo not given)", "measurement type": "inhibition", "reported": -3.38}
{"molecule": "O=C(Nc1cc(N2CCOCC2)ncn1)NC1(C(F)(F)F)Oc2ccccc2O1", "measurement type": "inhibition", "reported": 5.1}
{"molecule": "Cc1ccc(OCC(=O)N2N=C(C(F)(F)F)CC2(O)C(C)(C)C)cc1C (stereo not given)", "measurement type": "inhibition", "reported": -0.9}
{"molecule": "Cc1cc(C)c(S(=O)(=O)Nc2cccc3nsnc23)c(C)c1", "measurement type": "inhibition", "reported": 3.04}
{"molecule": "Cc1n[nH]c(C)c1CNCc1c(C(=O)N2CCCCCCC2)nc2ccc(Cl)cn12", "measurement type": "inhibition", "reported": -4.57}
{"molecule": "Cc1c(Br)ccc(NC(=O)CCN2C(=O)C3C4CCC(C4)C3C2=O)c1C (stereo not given)", "measurement type": "inhibition", "reported": 15.8}
{"molecule": "CCOC(=O)c1c(NC(=O)c2ccoc2C)sc2c1CCC2", "measurement type": "inhibition", "reported": 16.6}
{"molecule": "CCCNC(=O)Nc1ccc(C(F)(F)F)cc1", "measurement type": "inhibition", "reported": 6.33}
{"molecule": "COC(=O)c1c(NC(=O)c2ccoc2C)sc2c1CCC2", "measurement type": "inhibition", "reported": -15.6}
{"molecule": "Cc1ccc(-n2c(C)cc(C(=O)COc3c(CO)cc(F)cc3CO)c2C)cc1C", "measurement type": "inhibition", "reported": 11.4}
{"molecule": "Cc1cccc(Nc2nnc(SCC(=O)Nc3cccc(S(=O)(=O)N4CCCCC4)c3)s2)c1", "measurement type": "inhibition", "reported": 33.5}
{"molecule": "CCC(=O)N1CCN(c2ccc(NC(=O)c3ccc([N+](=O)[O-])o3)cc2Cl)CC1", "measurement type": "inhibition", "reported": 3.55}
{"molecule": "CCOC(=O)c1cc(C)n(-c2ccc(OC)c(OC)c2)c1C", "measurement type": "inhibition", "reported": 0.75}
{"molecule": "CCN(CC)c1ccc(NC(=O)CSc2nc3ccccc3c(=O)n2-c2cc(S(=O)(=O)N(C)C)ccc2C)cc1", "measurement type": "inhibition", "reported": -13}
{"molecule": "CC(C)(C)c1ccc(C(=O)NN2C(=O)CSC2=S)cc1", "measurement type": "inhibition", "reported": 5.92}
{"molecule": "CCCc1cc(=O)[nH]c(SCC(=O)Nc2ccc3c(c2)CCC3)n1", "measurement type": "inhibition", "reported": 19.8}
{"molecule": "Cc1ccc(C(=O)NN2C(=O)CSC2=S)cc1", "measurement type": "inhibition", "reported": 33.1}
{"molecule": "COc1ccc2sc(N(CCN(C)C)C(=O)/C=C/c3cccs3)nc2c1", "measurement type": "inhibition", "reported": 1.07}
{"molecule": "COC(=O)CN(c1ccccc1OC)S(=O)(=O)c1ccccc1", "measurement type": "inhibition", "reported": -2.64}
{"molecule": "Cc1ccc(S(=O)(=O)N(CC(=O)Nc2ccccc2C(=O)O)c2ccccc2)cc1", "measurement type": "inhibition", "reported": 4.48}
